Molecular target: T1, human CLEC-1A expressed on the cell membrane (human, UniProt Q8NC01 1-280)
T1 construct: Endogenous on human U266 myeloma cells, on monocyte-derived TGFb-DC and macrophages; on CHO cells after transduction with a Clec-1 expressing lentivirus; also called U266 CLEC1; CLEC-1A on U266 cells
T1 sequence: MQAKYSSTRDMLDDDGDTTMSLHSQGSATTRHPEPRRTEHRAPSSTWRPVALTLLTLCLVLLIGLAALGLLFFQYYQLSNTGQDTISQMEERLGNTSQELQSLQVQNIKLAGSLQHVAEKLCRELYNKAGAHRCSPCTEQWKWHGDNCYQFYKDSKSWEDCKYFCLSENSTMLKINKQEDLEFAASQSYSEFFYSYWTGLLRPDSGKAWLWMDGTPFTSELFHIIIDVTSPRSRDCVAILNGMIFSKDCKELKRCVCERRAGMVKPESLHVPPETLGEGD
Test: flow cytometry on U266 cells; printed as ED50, read-out % + cells
Quantity: EC50
Please append the unit to your numeric answer.

Q) Using the record for murine anti-hCLEC1 antibody 11H11-G11 (antibody, V domains shown, Mouse hybridoma antibody) VH: QIHLVQSGPELKKPGETVKISCKASGYTFTNFGMNWVKQAPGKGLKWMGWINTNTGEPTYADDFKGRFAFSLETSASTAYLQINNLKNEDTATYFCARGAPAWFTYWGQGTLVTVSA VL: DIQMTQSPASLSASVGETVTITCRATENIYSYLAWYQQKQGKSPQFLVYNAKTLAEGMPSRFSGSGSGTQFSLKINILQPEDFGTYYCQHHFGTPLTFGAGTKLELK , report its EC50.
A) 7.7 ng/mL
